B1: Storkhead-box protein 2, residues 64 to 141; numbered along this chain, Q9P2F5 (parent)
chain: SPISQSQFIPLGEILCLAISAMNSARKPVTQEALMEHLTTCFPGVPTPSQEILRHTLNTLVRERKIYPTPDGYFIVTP

Variants of: B1
ASSAY PROTOCOL: abundance fitness (aPCA) (normalised: wild type 0, dead -1); higher = more abundant; growth selection in yeast, the domain comes from the species named
CONDITION SET: Homo sapiens
Would you please tag the item Y when its abundance fitness is -0.2 or above, and N when it is below?

MUTANT LABEL | GROUP
G72N | Y
L57P | N
L38V | Y
V76A | Y
L34P | N
G44N | Y
T56S | Y
V45L | Y
P70A | Y
S1E | N
L17A | Y
L15Q | N
V76I | N
P28T | Y
I19P | N
Y73I | N
P78K | Y
H55A | Y
L57K | N
E36Q | Y
L34V | Y
V29P | Y

Origin of measurements: the Human Domainome abundance scans (Beltran et al. 2025)
